From: patent US20250163162A1

Target: T1, IL10Rα and IL2Rγ on human primary cells (CD8 T cells, CD4 T cells, monocytes) (human) (UniProt Q13651)
T1 sequence (looked up) 1: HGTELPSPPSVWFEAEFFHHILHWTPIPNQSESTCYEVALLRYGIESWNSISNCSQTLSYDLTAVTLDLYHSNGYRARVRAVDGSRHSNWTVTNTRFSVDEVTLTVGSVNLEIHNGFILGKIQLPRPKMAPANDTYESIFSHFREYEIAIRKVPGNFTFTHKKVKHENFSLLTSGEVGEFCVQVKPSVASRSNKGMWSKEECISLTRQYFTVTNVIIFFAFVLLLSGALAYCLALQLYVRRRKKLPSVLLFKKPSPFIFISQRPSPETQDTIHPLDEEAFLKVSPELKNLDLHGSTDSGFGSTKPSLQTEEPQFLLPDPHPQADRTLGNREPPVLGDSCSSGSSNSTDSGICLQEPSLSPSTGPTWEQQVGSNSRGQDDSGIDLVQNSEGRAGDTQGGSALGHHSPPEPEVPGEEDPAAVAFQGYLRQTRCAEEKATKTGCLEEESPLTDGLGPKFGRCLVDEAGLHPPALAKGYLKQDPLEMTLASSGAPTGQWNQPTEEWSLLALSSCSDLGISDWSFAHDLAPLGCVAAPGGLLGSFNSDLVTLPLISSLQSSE
T1 sequence (looked up) 2: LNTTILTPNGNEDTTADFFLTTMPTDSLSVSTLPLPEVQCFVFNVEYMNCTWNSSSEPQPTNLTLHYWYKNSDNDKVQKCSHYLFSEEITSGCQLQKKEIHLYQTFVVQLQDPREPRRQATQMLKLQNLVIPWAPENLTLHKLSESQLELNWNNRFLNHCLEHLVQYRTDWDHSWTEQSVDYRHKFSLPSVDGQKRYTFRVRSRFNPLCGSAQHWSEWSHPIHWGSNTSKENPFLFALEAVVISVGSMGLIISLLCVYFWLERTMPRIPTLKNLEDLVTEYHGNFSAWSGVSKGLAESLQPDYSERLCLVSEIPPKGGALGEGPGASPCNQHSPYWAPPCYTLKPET
Experiment: cell-based or functional assay
readout_kind: pSTAT3 (MFI) in CD8 T cells at 100 µM
Provide only the numeric value, understood in MFI.

hIL10Ra_VHH14-hIL2Rg_VHH19, linker GGGS, tag his (bispecific antibody, not shown: small tags and cut ends) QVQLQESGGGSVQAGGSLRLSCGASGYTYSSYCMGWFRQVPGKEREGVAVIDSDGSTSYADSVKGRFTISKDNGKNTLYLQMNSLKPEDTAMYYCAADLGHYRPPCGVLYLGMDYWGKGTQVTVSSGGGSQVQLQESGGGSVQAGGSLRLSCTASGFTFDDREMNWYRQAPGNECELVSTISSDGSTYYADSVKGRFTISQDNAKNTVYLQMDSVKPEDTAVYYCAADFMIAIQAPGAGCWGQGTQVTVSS
9970

Q: Fill blank: measured pSTAT3 (MFI) in CD8 T cells at 100 µM of the binder hIL10Ra_VHH14-hIL2Rg_VHH19, linker GGGS, tag Fc (Fc fusion, not shown: a dimerising Fc or GST) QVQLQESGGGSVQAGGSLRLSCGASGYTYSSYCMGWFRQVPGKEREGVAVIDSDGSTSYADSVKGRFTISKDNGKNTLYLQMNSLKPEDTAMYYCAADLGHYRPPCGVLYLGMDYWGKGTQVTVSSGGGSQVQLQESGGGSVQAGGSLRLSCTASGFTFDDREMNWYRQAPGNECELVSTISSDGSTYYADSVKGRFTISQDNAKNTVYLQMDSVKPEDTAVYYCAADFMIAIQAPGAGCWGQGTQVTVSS is ____.
A: 13200

Q: Value lookup for pSTAT3 (MFI) in CD8 T cells at 100 µM; key = hIL10Ra_VHH14-hIL2Rg_VHH19, linker GGSGGS, tag his (bispecific antibody, not shown: small tags and cut ends) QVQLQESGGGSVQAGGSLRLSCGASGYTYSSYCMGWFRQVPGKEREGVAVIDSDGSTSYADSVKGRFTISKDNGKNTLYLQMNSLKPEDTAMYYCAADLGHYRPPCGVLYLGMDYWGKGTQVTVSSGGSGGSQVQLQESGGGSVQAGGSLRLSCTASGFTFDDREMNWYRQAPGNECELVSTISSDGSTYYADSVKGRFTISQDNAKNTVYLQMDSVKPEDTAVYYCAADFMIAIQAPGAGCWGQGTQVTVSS
A: 7000

Q: Given the binder hIL10Ra_VHH14-hIL2Rg_VHH19, linker …, tag his (bispecific antibody, not shown: small tags and cut ends) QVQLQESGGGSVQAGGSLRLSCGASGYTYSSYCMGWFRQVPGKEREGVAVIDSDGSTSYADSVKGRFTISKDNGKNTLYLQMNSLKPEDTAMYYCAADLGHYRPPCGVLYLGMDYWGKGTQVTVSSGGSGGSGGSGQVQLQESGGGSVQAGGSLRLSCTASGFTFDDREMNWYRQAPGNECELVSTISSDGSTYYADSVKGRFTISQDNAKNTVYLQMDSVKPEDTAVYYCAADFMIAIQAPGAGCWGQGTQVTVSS , what is its reported pSTAT3 (MFI) in CD8 T cells at 100 µM?
A: 6930
